# System: A-375
# test.method.notes: Antiproliferative activity against human A375 cells assessed as reduction in cell viability incubated for 72 hrs by trypan blue or crystal violet staining based assay
# Format: functional
# condition.label: Homo sapiens, A-375, 72 h; read-out: IC50
property.name: pIC50
Just the number, please; pIC50 means minus log10 of the concentration in mol/L.

CCOC(=O)c1c(-c2ccccc2)csc1NC(NC(=O)c1ccco1)C(Cl)(Cl)Cl (stereo not given) | 5.57

Documented pIC50 of CC1(C)CC(NC(=O)c2cnn3c(C(F)F)cc(C4CC4)nc23)c2ccccc2O1 (stereo not given) : 5.66

Documented pIC50 of CCOC(=O)c1c(-c2ccccc2)csc1NC(NC(=O)c1ccc([N+](=O)[O-])cc1)C(Cl)(Cl)Cl (stereo not given) : 5.28

Documented pIC50 of O=C(NC1CCCc2ccccc21)c1cnn2c(C(F)(F)F)cc(-c3ccco3)nc12 (stereo not given) : 6.22

Documented pIC50 of COc1c(O)cc2oc3cc(O)c(CC=C(C)C)c(O)c3c(=O)c2c1CC=C(C)C : 5.57
